Assay system: T1, 重组人GPC3近膜端抗原 (human, UniProt P51654 524-563)
T1 construct: range 524-563
T1 chain (looked up): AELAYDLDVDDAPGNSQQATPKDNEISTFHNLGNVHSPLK
Protocol description: ELISA, coated antigen, HRP anti-human IgG
Measured EC50 of individual entries
State just the number; it will be interpreted in µg/mL.

Consider the following illustrative entries.
亲和力成熟变体5E11 (antibody, V domains shown) VH: QVQLKQSGAELMKPGASVKISCKATGYTFSRYWIEWVKQRPGHGLEWIGEILPGSGSTSYNEKFKGKATFTADTSSNTAYMQLSSLTSEDSAVYYCARSARATYYFDYWGQGTTLTVSS VL: DIQMTQTTSSLSASLGDRVTISCWASQDISNYLNWYQQKPDGTVKLLIYYTSTLHSGVPSRFSGSGSGTDYSLTISNLEQEDIATYFCQQGNALPYTFGGGTKLEIK: 0.12
亲和力成熟变体7C6 (antibody, V domains shown) VH: QVQLQQPGAELVKPGASVKLSCKASGYTFTTYYMYWVKQRPGQGLEWIGEINPSNGGTNFNEKFKSKATLTVDKSSSTAYMQLSSLTSEDSAVYYCTTFAYWGQGTLVTVSA VL: DIVMTQSPSSLSASLGGKVTITCKASQDINKYIVWYQHKPGKGPRLLIHYTSILQPGIPSRFSGSGSGRDYSFSISNLEPEDIATYYCLQYDNLWTFGGGTKLEIK: 0.0428
人源GPC3抗体10C7 (antibody, V domains shown, also called 抗人GPC3抗体10C7) VH: QVQLVQSGAEVKKPGASVKLSCKASGYTFTDYEMHWVKQTPGKGLKWIGALDPKTGDTAYAQKFQGRATLTADTSTDTAYMELSSLRSEDSAVYYCTRFYSYTYWGQGTLVTVSS VL: DIVLTQSPLSLTVTPGEPASISCRSSESLVHSNGNTYLSWLQQRPGQPPRLLIYKISNRFSGVPDRFSGSGAGTDFTLKISRVEAEDVGVYYCTQATQFPYTFGQGTKVEIK: 0.141

Attention now shifts to the item below.
Please supply the value of reported EC50 for the item 亲和力成熟变体5A5 (antibody, V domains shown) VH: QVQLQQSGTELVRPGASVKLSCKALGYTFTDYEMHWVKQTPVHGLEWIGAIHPGSGDTAYNQRFKGKATLTADKSSSTAYMEYSSLTSEDSAVYYCTRFYSYAYWGQGTLVTVSA VL: DVVMTQTPLSLPVSLGDQASISCRSSQSLVHSNGNTYLQWYLQKPGQSPKLLIYKVSNRFSGVPDRFSGRGSGTDFTLKISRVEAEDLGVYFCSQSIYVPYTFGGGTKLEIK 0.0951

Value source: patent CN113354737A
